- TEST_TARGET: T1, DLG3_3, Q92796
- T1 sequence (Q92796 374-475, limits assumed, looked up): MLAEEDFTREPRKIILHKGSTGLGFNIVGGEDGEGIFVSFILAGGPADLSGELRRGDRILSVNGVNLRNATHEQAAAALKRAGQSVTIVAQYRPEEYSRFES
- ASSAY_COMMENT: holdup assay
- Parameters: key: below the threshold = too weak to quantify, mostly under pKd 3.1 to 4
- RUN_CONDITIONS: plain residues with an end cap or a label only (N-terminal biotin on a linker: ttds)
Parameter pKd: see the listing below.
Just the number, please, no unit attached.

These solved cases illustrate the format of a correct answer.
PVRVCEETSL [OTULIN, Q96BN8] :: 4.02
SSLQSLETSV [ATP2B4, P23634] :: 4.73
KKYVDAETSL [SLC4A7, Q9Y6M7] :: 3.79
RLPKIKETTV [FRMPD4, Q14CM0] :: 5.21
RLQRRRETQV [HPV18-E6, P06463] :: 5.44
EVVHTPETSV [SLC16A3, O15427] :: 4.28
EMDRRPATVV [PLCB4, Q15147] :: 3.78
SKPTRRETEV [HPV35-E6, P27228] :: 5.18

Enquiry: Requested read-out: pKd. Entry: QRQARSETLV [HPV59-E6, Q81964]
Return: 4.51

Enquiry: # iterate: RHTTSTETAV [HPV30-E6, P36809]
Return: 4.66
